target: Melanocortin receptor 3 (Homo sapiens); assay: Agonist activity at human MC3R expressed in CHO cells assessed as cAMP accumulation; type: functional, cell-based
Sequence (P41968 whole entry): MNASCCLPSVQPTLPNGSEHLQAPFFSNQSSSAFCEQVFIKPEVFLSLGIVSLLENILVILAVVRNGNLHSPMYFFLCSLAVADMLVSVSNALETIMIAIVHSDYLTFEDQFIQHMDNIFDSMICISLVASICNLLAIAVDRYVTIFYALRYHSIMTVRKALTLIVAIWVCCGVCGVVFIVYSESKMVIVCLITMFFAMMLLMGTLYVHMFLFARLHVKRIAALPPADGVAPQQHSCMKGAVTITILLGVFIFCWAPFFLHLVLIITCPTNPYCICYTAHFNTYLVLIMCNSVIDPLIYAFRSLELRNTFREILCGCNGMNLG
# key: entry, value: EC50

Examples with their reported EC50 follow.
item smiles	result
CCCC[C@H](NC(C)=O)C(=O)N[C@H]1CC(=O)NCCCC[C@@H](C(N)=O)NC(=O)[C@H](Cc2c[nH]c3ccccc23)NC(=O)[C@@H]2CCCN2C(=O)[C@@H](Cc2ccc(-c3ccccc3)cc2)NC(=O)[C@H](Cc2c[nH]cn2)NC1=O	1400 nM (agonist)
CCCC[C@H](NC(C)=O)C(=O)N[C@H]1CC(=O)NCCCC[C@@H](C(N)=O)NC(=O)[C@H](Cc2c[nH]c3ccccc23)NC(=O)[C@@H]2CCCN2C(=O)[C@@H](Cc2ccc(OCC)cc2)NC(=O)[C@H](Cc2cnc[nH]2)NC1=O	> 2500 nM
CCCC[C@H](NC(C)=O)C(=O)N[C@H]1CC(=O)NCCCC[C@@H](C(N)=O)NC(=O)[C@H](Cc2c[nH]c3ccccc23)NC(=O)[C@@H]2CCCCN2C(=O)[C@@H](Cc2ccc(-c3ccccc3)cc2)NC(=O)[C@H](Cc2c[nH]cn2)NC1=O	370 nM (agonist)

Reported EC50, molecule CCCC[C@H](NC(C)=O)C(=O)N[C@H]1CC(=O)NCCCC[C@@H](C(N)=O)NC(=O)[C@H](Cc2c[nH]c3ccccc23)NC(=O)[C@@H]2CCCN2C(=O)[C@@H](Cc2ccc(Cl)cc2)NC(=O)[C@H](Cc2c[nH]cn2)NC1=O : ____
> 5000 nM

* * *

target: Melanocortin receptor (M4 and M5) (Homo sapiens) (UniProt P32245+P33032); test: Selectivity for human cloned MC5R over human cloned MC4R; format: protein assay
Sequence (P32245 whole entry, looked up): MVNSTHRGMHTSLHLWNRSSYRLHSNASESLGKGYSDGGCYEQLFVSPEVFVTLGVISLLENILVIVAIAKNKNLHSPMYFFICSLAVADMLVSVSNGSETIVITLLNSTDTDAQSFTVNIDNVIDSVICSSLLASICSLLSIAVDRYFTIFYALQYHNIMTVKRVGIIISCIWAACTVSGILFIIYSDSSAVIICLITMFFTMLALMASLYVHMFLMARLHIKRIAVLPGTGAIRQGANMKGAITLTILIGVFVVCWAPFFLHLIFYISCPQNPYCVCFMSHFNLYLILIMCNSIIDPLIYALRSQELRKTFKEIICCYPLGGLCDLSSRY
Sequence (P33032 whole entry, looked up): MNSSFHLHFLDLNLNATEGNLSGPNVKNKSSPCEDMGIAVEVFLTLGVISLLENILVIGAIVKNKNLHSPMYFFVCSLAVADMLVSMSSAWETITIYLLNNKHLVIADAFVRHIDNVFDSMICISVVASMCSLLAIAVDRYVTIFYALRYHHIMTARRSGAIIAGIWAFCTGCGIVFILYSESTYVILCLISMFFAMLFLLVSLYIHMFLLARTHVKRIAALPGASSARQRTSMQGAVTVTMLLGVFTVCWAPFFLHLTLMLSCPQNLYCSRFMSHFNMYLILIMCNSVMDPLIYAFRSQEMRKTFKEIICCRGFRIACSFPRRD
property: Ratio IC50
Please respond with just the number, no unit label.

Query: Ratio IC50; subject: CCCC[C@H](NC(C)=O)C(=O)N[C@H]1CC(=O)NCCCC[C@@H](C(N)=O)NC(=O)[C@H](Cc2c[nH]c3ccccc23)NC(=O)[C@@H]2CCCN2C(=O)[C@H](Cc2ccc(-c3ccccc3)cc2)NC(=O)[C@@H]2CC3CCCCC3N2C1=O (some centres not stated)
470

* * *

organism: Homo sapiens; assay: Selectivity for human cloned MC5R over human cloned MC3R
property: Ratio IC50
// return a plain number; no unit text

Can you share its Ratio IC50? I mean this compound: CCCC[C@H](NC(C)=O)C(=O)N[C@H]1CC(=O)NCCCC[C@@H](C(N)=O)NC(=O)[C@H](Cc2c[nH]c3ccccc23)NC(=O)[C@@H]2CCCN2C(=O)[C@H](Cc2ccc(-c3ccccc3)cc2)NC(=O)[C@@H]2CCCN2C1=O
217

* * *

target: Melanocyte-stimulating hormone receptor (Homo sapiens); experiment: Agonist activity at human melanocortin receptor 1b expressed in CHO cells assessed as cAMP accumulation; type: functional, cell-based
Sequence (Q01726 whole entry): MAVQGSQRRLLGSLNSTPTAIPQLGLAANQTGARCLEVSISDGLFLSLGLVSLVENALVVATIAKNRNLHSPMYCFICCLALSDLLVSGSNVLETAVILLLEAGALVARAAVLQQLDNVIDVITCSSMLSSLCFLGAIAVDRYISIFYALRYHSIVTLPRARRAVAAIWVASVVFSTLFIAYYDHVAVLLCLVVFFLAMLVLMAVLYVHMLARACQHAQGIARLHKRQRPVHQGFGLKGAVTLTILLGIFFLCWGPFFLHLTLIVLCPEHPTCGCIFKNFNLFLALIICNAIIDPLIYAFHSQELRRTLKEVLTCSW
Below, each of the compounds is paired with its reported EC50 value.

Bench note: what EC50 did CCCC[C@H](NC(C)=O)C(=O)N[C@H]1CC(=O)NCCCC[C@@H](C(N)=O)NC(=O)[C@H](Cc2c[nH]c3ccccc23)NC(=O)[C@@H]2CCCCN2C(=O)[C@@H](Cc2ccc(-c3ccccc3)cc2)NC(=O)[C@H](C(C)C)NC1=O show?
330 nM (agonist)

Which value of EC50 has been reported for CCCC[C@H](NC(C)=O)C(=O)N[C@H]1CC(=O)NCCCC[C@@H](C(N)=O)NC(=O)[C@H](Cc2c[nH]c3ccccc23)NC(=O)[C@@H]2CCCN2C(=O)[C@@H](Cc2ccc(OC)cc2)NC(=O)[C@H](Cc2cnc[nH]2)NC1=O in the records?
50 nM (agonist)
